Sourced from patent US20210253725A1

The following binders are listed with their measured IL-8, cross-linked by F(ab')2 fragment [abs. corr.] values.
# assaySystem: T1, CD27 expressed on the cell surface (HT1080_CD27 cells) (human, UniProt P26842 20-260); further: test concentration or dose not given here
# T1 sequence (looked up): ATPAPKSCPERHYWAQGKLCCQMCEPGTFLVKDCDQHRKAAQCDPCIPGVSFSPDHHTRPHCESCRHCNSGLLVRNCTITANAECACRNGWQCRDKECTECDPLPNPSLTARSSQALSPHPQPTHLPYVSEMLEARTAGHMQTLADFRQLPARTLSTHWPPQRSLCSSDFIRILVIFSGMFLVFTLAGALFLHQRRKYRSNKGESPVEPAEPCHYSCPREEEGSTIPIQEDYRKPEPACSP
# testDetails: cell-based or functional assay
observationType: IL-8, cross-linked by F(ab')2 fragment [abs. corr.] (abs. corr.)

binder	result
P018.S.09.A.C06 (antibody, V domains shown, V regions on human Ig constant parts; also called AB27_149) VH: QSVEESGGRLVTPGTPLTLTCTVSGFSLSTYAMGWVRQAPGKGLEWIGIIYTGGSTYYASWAEGRFTISKTSTTVDLKITSPTPEDTATYFCTRDLGATYDYFDLWGQGTLVTVSS VL: AYDMTQTPASVEVAVGGTVTIKCQASQSISTALAWYQQKPGQRPKLLIYDTSDLASGVPSRFSGSGSGTEFTLTISGVESADAATYYCQQGYRHTNVDNPFGGGTGVVVK	2.3
P018.S.05.A.C06 (antibody, V domains shown, V regions on human Ig constant parts; also called AB27_85) VH: QSLEESGGRLVTPGTPLTLTCTASGFSLSNYYITWVRQAPGEGLEWIGTISTAGNTYFASWAKGRFTISRTSTTVDLKMTSPTTEDTATYFCARDGAGDSNYYRNLWGQGTLVTVSS VL: DIVLTQTPASVEAAVGGTVTIKCQASQSIDRFLAWYQQKPGQPPKLLIVDASTLESGVPSRFSGSGSGTEFTLTISDLESDNAATYYCQQGYSISDIDNVFGGGTEVVVK	1.11
